Test system: TGF-β
ASSAY INFO: AlphaScreen SureFire p-SMAD3 (Ser423/425) assay, TGF-β-stimulated cells
Type: cell-based
MEASUREMENT SETUP: Mus musculus; p-SMAD3 (Ser423/425) AlphaScreen in cell lysate; MPC-11; TGF-β stimulation; read-out: TGF-β: inhibition of TGF-β signaling, TGF-β pSMAD (MPC-11)
Text: The p-SMAD-3 (Ser423/425) SureFire® assay has been designed to measure the phosphorylation of endogenous cellular p-SMAD-3 (Ser423/425) in cell lysates and is a system for the screening of both modulators of receptor activation (e.g. agonists and antagonists) as well as agents acting intracellularly, such as small molecule inhibitors of upstream events. The assay will measure p-SMAD-3 (Ser423/425) activation by either cloned or endogenous receptors, and can be applied to primary cells. […]
Overview of reported IC50 across a group of compounds:

Cc1ccc(Cl)cc1-c1nc2n(c1-c1ccc3ncccc3c1)CCC2 [Compound 340]; 100 to 1000 nM
Cc1cc(-c2nc3n(c2-c2ccc4ncsc4c2)CCC3)ccc1F [Compound 173]; 50 to 100 nM

Now turn to the next compound.
IN: Fill blank: measured IC50 of the compound Fc1cc(-c2nc3n(c2-c2ccc4nnc(C(F)(F)F)n4c2)CCC3)cc(F)c1F [Compound 33] is ____.
OUT: > 1000 nM
